Each entry below carries its recorded fraction ligated.
B1: minF1; the commonest letter at each place (parent)
chain: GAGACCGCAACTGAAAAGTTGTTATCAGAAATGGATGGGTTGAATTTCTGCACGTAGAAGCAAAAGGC

- Variants of: B1
- EXPERIMENT: fraction ligated after 30 min (ligated reads / total reads); higher = more ligase activity
- MEASUREMENT SETUP: with F1*subA RNA substrate (template-directed ligation), 42 °C

Before answering, review these 10 worked examples.
MUTANT | fraction ligated
A27G | 0.803
G42T A43C A44C | 0.00131
T25C A31G | 0.057
A31C A43T | 0.0946
T25C A35C | 0.00531
A27C A31T | 0.455
A31C G42A | 0.279
A30G | 0.807
A30C T32G | 0.019
A30G G37T | 0.0167

Ask: I am curious: what fraction ligated value has been reported for G42T A43T A44G ?
Reply: 0.000847

Ask: Okay, and T23A A35C ?
Reply: 0.00609

Ask: Try A24C G37C next.
Reply: 0.00569

Ask: Next variant up: A27T T32G
Reply: 0.0604

The measured values listed here are drawn from the supplement of paper PMC6755084.
